experiment summary: Plasma pharmacokinetics of pracinostat
Type: in vivo, human
test context: human, plasma, po, 100 mg, Tmax, Day 1, 100 mg oral, n=3, mean±SD
attribute measured: Tmax (h)
Numbers only, in h.

Determine its reported Tmax: "CCCCc1nc2cc(/C=C/C(=O)NO)ccc2n1CCN(CC)CC" 1.2

----------
experiment summary: Plasma pharmacokinetics of pracinostat
Format: in vivo, human
test context: human, plasma, po, 120 mg, Cmax, Day 1, 120 mg oral, n=6, mean±SD
attribute measured: Cmax (ng/mL)
Answers are plain numbers, in ng/mL.

Determine its reported Cmax: CCCCc1nc2cc(/C=C/C(=O)NO)ccc2n1CCN(CC)CC [Pracinostat] 202

----------
experiment summary: Plasma pharmacokinetics of pracinostat
Type: in vivo, human
test context: human, plasma, po, 40 mg, Tmax, Day 15, 40 mg oral, n=5, mean±SD
attribute measured: Tmax (h)
One number for each entry, in h.

Determine its reported Tmax: "CCCCc1nc2cc(/C=C/C(=O)NO)ccc2n1CCN(CC)CC" 1.3

----------
experiment summary: Plasma pharmacokinetics of pracinostat
Format: in vivo, human
test context: human, plasma, po, 80 mg, AUC0-inf, Day 15, 80 mg oral, n=3, mean±SD
attribute measured: AUC(0-inf) (ng·h/mL)
One number for each entry, in ng·h/mL.

Determine its reported AUC(0-inf): "CCCCc1nc2cc(/C=C/C(=O)NO)ccc2n1CCN(CC)CC" 977

----------
experiment summary: Plasma pharmacokinetics of pracinostat
Format: in vivo, human
test context: human, plasma, po, 120 mg, Tmax, Day 1, 120 mg oral, n=6, mean±SD
attribute measured: Tmax

Determine its reported Tmax: "CCCCc1nc2cc(/C=C/C(=O)NO)ccc2n1CCN(CC)CC" 1.2 h

----------
experiment summary: Plasma pharmacokinetics of pracinostat
Type: in vivo, human
test context: human, plasma, po, 80 mg, Cmax, Day 1, 80 mg oral, n=3, mean±SD
attribute measured: Cmax (ng/mL)
Give bare numbers, in ng/mL.

Determine its reported Cmax: "CCCCc1nc2cc(/C=C/C(=O)NO)ccc2n1CCN(CC)CC" 189

----------
experiment summary: Plasma pharmacokinetics of pracinostat
Type: in vivo, human
test context: human, plasma, po, 40 mg, t1/2, Day 1, 40 mg oral, n=6, mean±SD
attribute measured: half-life (h)
Give bare numbers, in h.

Determine its reported half-life: "CCCCc1nc2cc(/C=C/C(=O)NO)ccc2n1CCN(CC)CC" 9.4

----------
experiment summary: Plasma pharmacokinetics of pracinostat
Format: in vivo, human
test context: human, plasma, po, 60 mg, Tmax, Day 15, 60 mg oral, n=3, mean±SD
attribute measured: Tmax (min)
Give bare numbers, in min.

Determine its reported Tmax: "CCCCc1nc2cc(/C=C/C(=O)NO)ccc2n1CCN(CC)CC" 48

----------
experiment summary: Plasma pharmacokinetics of pracinostat
Format: in vivo, human
test context: human, plasma, po, 80 mg, t1/2, Day 1, 80 mg oral, n=3, mean±SD
attribute measured: half-life (min)
One number for each entry, in min.

Determine its reported half-life: CCCCc1nc2cc(/C=C/C(=O)NO)ccc2n1CCN(CC)CC [Pracinostat] 420

----------
experiment summary: Plasma pharmacokinetics of pracinostat
Type: in vivo, human
test context: human, plasma, po, 60 mg, Cmax, Day 1, 60 mg oral, n=3, mean±SD
attribute measured: Cmax (ng/mL)
Answers are plain numbers, in ng/mL.

Determine its reported Cmax: "CCCCc1nc2cc(/C=C/C(=O)NO)ccc2n1CCN(CC)CC" 133
